molecular target: purified HLA DRB1*0101 (Homo sapiens, UniProt P01903+P01911, A100R/D57E/F55L/F60I/F76Y/I96L/L162R/M171V/P40L/Q125E/R42F/V115G/Y59C); construct: purified from EBV transformed homozygous cell lines or single MHC allele transfected 721.221, C1R, or fibroblast lines; made in house; assay: HLA-DR radioligand binding inhibition assay, DRB1*0101; details: IC50 nM purified HLA DRB1 *0101, purified HLA DRB1*0101
Could you please mark true (1) for values of IC50 below 1000 nM and false (0) for values at or above it?

Compound: CSCC[C@H](NC(=O)[C@H](CC(N)=O)NC(=O)[C@H](CCC(N)=O)NC(=O)[C@H](CCC(N)=O)NC(=O)[C@H](C)NC(=O)[C@H](CCC(N)=O)NC(=O)[C@H](CCCNC(=N)N)NC(=O)[C@H](CC(C)C)NC(=O)[C@H](CO)NC(=O)[C@H](CO)NC(=O)[C@H](CCC(=O)O)NC(=O)[C@H](CC(C)C)NC(=O)[C@H](CC(C)C)NC(=O)[C@H](C)NC(=O)[C@@H](N)CCC(=O)O)C(=O)O [Peptide 9019.0014]
Label Value: false (0)
--
Compound: CC[C@H](C)[C@H](NC(=O)[C@H](CS)NC(=O)[C@H](Cc1c[nH]c2ccccc12)NC(=O)[C@@H](N)CCCNC(=N)N)C(=O)N1CCC[C@H]1C(=O)N[C@@H](Cc1c[nH]c2ccccc12)C(=O)N[C@@H](CCC(N)=O)C(=O)N[C@@H](CCCNC(=N)N)C(=O)N[C@@H](CC(C)C)C(=O)N[C@@H](CC(C)C)C(=O)N[C@@H](CC(C)C)C(=O)N[C@H](C(=O)N[C@@H](C)C(=O)N[C@@H](CO)C(=O)N[C@@H](CC(C)C)C(=O)O)[C@@H](C)O [Peptide 9019.0104]
Label Value: false (0)
--
Compound: CC(C)[C@H](NC(=O)[C@H](Cc1ccc(O)cc1)NC(=O)[C@H](CCC(=O)O)NC(=O)[C@@H]1CCCN1)C(=O)N[C@@H](CC(N)=O)C(=O)N[C@@H](CCC(N)=O)C(=O)N1CCC[C@H]1C(=O)N[C@@H](CC(=O)O)C(=O)N[C@H](C(=O)N[C@@H](CCCNC(=N)N)C(=O)N1CCC[C@H]1C(=O)N[C@@H](CCC(N)=O)C(=O)N1CCC[C@H]1C(=O)N1CCC[C@H]1C(=O)N[C@@H](CO)C(=O)O)C(C)C [Peptide 9019.0100]
Label Value: false (0)
--
Compound: CC[C@H](C)[C@H](NC(=O)[C@@H](NC(=O)[C@H](CCC(=O)O)NC(=O)[C@H](CCCCN)NC(=O)[C@H](CCSC)NC(=O)[C@H](CCCCN)NC(=O)[C@H](CO)NC(=O)[C@H](C)N)[C@@H](C)O)C(=O)N1CCC[C@H]1C(=O)N[C@@H](CC(C)C)C(=O)N[C@H](C(=O)N[C@@H](C)C(=O)N[C@@H](CCC(=O)O)C(=O)N[C@@H](CCCCN)C(=O)N[C@@H](CC(C)C)C(=O)O)[C@@H](C)O [Peptide 9019.0158]
Label Value: true (1)
--
Compound: CC(C)C[C@H](NC(=O)[C@@H](NC(=O)[C@H](C)NC(=O)CN)[C@@H](C)O)C(=O)N[C@@H](CCC(=O)O)C(=O)N[C@@H](CCCNC(=N)N)C(=O)N1CCC[C@H]1C(=O)N[C@@H](CCCCN)C(=O)N[C@H](C(=O)N[C@@H](CC(C)C)C(=O)N[C@@H](CO)C(=O)N1CCC[C@H]1C(=O)NCC(=O)N[C@@H](CCCCN)C(=O)N[C@@H](CC(N)=O)C(=O)O)[C@@H](C)O [Peptide 9019.0102]
Label Value: false (0)
--
Compound: CC[C@H](C)[C@H](NC(=O)[C@@H](NC(=O)[C@@H]1CCCN1C(=O)[C@H](C)N)[C@@H](C)O)C(=O)N[C@@H](CCCNC(=N)N)C(=O)NCC(=O)N[C@@H](CC(=O)O)C(=O)N1CCC[C@H]1C(=O)N[C@@H](CCC(=O)O)C(=O)N[C@@H](CS)C(=O)N[C@@H](Cc1c[nH]cn1)C(=O)N[C@@H](CC(C)C)C(=O)N[C@@H](Cc1ccccc1)C(=O)N[C@@H](Cc1ccc(O)cc1)C(=O)N[C@@H](CC(N)=O)C(=O)O [Peptide 9019.0022]
Label Value: false (0)
